experiment: NCI Yeast Anticancer Drug Screen. Data for the cln2 rad14 strain (AID 165);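 note: 0% = growth equal to vehicle treated cultures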; details: S. cerevisiae cln2 rad14 strain, at 50.0 µM, stronger effect = higher value
The panel holds about 79,000 compounds, 15% with a hit somewhere; the sample as a whole holds those more often.
# growth inhibition per record follows
The reply should contain only the number, in %.

// below: answered molecules
# molecule, growth inhibition [%]
rows = [
    ("COc1ccc(/C(=N\\Nc2ccc(Br)cc2)c2ccccc2/C(=N/Nc2ccc(Br)cc2)c2ccccc2OC)cc1", 54.6),
    ("Nc1cccc2c1C(=O)c1ccc(Cl)cc1C2=O", -17.6),
    ("CCC[CH2][Sn]([CH2]CCC)([O]C(=O)C1CCC(=O)N1)[O]C(=O)C1CCC(=O)N1 (stereo unspecified)", 91),
    ("CC(=O)OCc1c2ccccc2c(C)c2c1cc(F)c1ccccc12", 98.2),
    ("C=CCNC(=O)c1ccccc1C(=O)O", 23.6),
]

Consider the molecule shown here: CCN(CC)c1c(C(=O)/C=C/c2ccc(Cl)cc2)c(-c2ccccc2)nn(C)c1=O What is its recorded growth inhibition?
83.7

Then this molecule: C=CCSc1nc2ccc(N3C(=O)C=CC3=O)cc2s1
96.5

Then this molecule: O=C(O)C1C(C(=O)Nc2ccc3c(c2)Cc2ccccc2-3)C2(Cl)C(Cl)=C(Cl)C1(Cl)C2(Cl)Cl (stereo unspecified)
98.3

Then this molecule: CCCCC#CC(=O)OCCCCC
25.1

Then this molecule: CCN(CC)CC(O)c1c(-c2ccccc2)c(-c2ccccc2)c2n1CCC2 (stereo unspecified)
-4.75

Then this molecule: CCCCCCCCN/N=C(/C)CCCCCO
22.8

* * *

experiment: NCI Yeast Anticancer Drug Screen. Data for the sgs1 mgt1 strain (AID 161);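 note: 0% = growth of cultures given vehicle only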; conditions: S. cerevisiae sgs1 mgt1 strain, at 50.0 µM, stronger effect = higher value
The panel holds about 79,000 compounds, 15% with a hit somewhere; the sample as a whole holds those more often. The source made the active and inactive calls. Rule as the data show it: active = growth inhibition above about 70%; inactive = the rest.
readout kind: growth inhibition

// below: answered molecules
# molecule, growth inhibition
data = [
    ("CC1=C(CO)C(=O)O[C@@H]([C@@H](C)[C@H]2CC[C@H]3[C@@H]4C[C@@H](O)C5=CC=CC(=O)[C@]5(C)[C@H]4CC[C@]23C)C1", "85.8% (active)"),
    ("Cc1c(O)c2c(c(O)c1Br)C(=O)C=CC2=O", "90.5% (active)"),
    ("O=C(Nc1ccccc1O)/C(Cl)=C/Cl", "78.8% (active)"),
    ("Oc1c(Cl)cc(Cl)cc1C=Nc1cc(C(F)(F)F)ccc1Cl", "91.7% (active)"),
    ("COC(OC)(c1ccccc1)C(Br)Br", "89.3% (active)"),
]

Consider the molecule shown here: CC(=O)OC(OC(C)=O)c1ccc([N+](=O)[O-])s1 What is its recorded growth inhibition?
99.5% (active)

Then this molecule: COc1cccc(/C=C2/Sc3scc(-c4ccccc4)[n+]3C2=O)c1O
82.3% (active)

Then this molecule: CC(C)c1ccc2c(c1)CC[C@@H]1[C@](C)(CO)CCC[C@]21C
43.2% (inactive)

Then this molecule: c1cc[c]([Sn]([S]c2ccccn2)([c]2ccccc2)[c]2ccccc2)cc1
99.1% (active)

Then this molecule: ClC(Cl)(Cl)C1OCOC(C(Cl)(Cl)Cl)O1 (configuration not stated)
99.3% (active)

Then this molecule: CCC(=O)OC1=C(Cl)C(=O)c2ccccc2C1=O
63.8% (inactive)

Then this molecule: COC(=O)CCC(NC(=S)N/N=C(\C)c1cnc2ccccc2n1)C(=O)OC (configuration not stated)
67.1% (inactive)

Then this molecule: O=C(CC(=O)c1ccccc1)CC(=O)c1ccccc1Cl
81.2% (active)

Then this molecule: CCOC(=O)C1CN(CCCCCCN2CC(C(=O)OCC)C(=O)C2=O)C(=O)C1=O (configuration not stated)
28.5% (inactive)
